Target: Raf-1 (c-Raf) (Homo sapiens)
Construct: Sf9 insect cell lysate containing full length 6his-tagged recombinant human c-Raf; MEK1 and MAPK: E. coli
Sequence (P04049 whole entry): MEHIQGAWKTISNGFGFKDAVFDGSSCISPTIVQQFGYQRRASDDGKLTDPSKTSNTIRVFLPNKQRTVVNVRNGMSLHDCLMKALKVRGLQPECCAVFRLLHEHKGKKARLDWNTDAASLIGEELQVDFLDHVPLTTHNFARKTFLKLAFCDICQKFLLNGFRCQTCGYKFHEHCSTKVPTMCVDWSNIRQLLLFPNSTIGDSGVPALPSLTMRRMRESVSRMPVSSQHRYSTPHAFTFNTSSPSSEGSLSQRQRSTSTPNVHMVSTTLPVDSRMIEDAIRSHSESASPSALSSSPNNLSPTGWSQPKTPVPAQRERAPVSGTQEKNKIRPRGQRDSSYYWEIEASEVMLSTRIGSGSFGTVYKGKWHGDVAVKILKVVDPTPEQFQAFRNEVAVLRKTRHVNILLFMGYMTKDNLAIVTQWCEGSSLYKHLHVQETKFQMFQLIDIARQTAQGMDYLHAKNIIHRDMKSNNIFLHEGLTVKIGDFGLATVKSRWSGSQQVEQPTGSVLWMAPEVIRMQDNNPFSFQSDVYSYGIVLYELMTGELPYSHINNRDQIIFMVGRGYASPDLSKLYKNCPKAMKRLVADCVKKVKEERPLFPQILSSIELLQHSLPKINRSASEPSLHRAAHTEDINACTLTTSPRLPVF
Assay: Raf1 kinase cascade assay procedure
Procedure: (Specific Activity: ~200U/ml). Human Non-active Mek-1-GST and human GST-MAP kinase (recombinant proteins produced in E. coli). • 1. […] First Stage: c-Raf Dependent Activation of GST-MEK and GST-MAPK • 1. […] Wash 3X with TBST, Read plates in Wallac Victor model Plate Reader. • 10. […] Typically Raf-1 assay is run at compound concentrations from 10 µM to 1 nM in half log dilutions. (% inhibition is determined for each compound concentration).
assay-endpoint: pIC50
Please keep in mind that pIC50 is minus log10 of the molar concentration; only the number is needed.

{"compound": "COc1cc2cc3c(Nc4ccc(Oc5ccccc5)c(Cl)c4)c(C#N)cnc3cc2cc1OCCN1CCOCC1 [Example 213]", "pIC50": 7.57}
{"compound": "COc1cc2cc3c(Nc4ccc(Sc5nccn5C)c(Cl)c4)c(C#N)cnc3cc2cc1OCCn1nccn1 [Example 153]", "pIC50": 7.92}
{"compound": "N#Cc1cnc2c(c1Nc1ccc(Oc3ccccc3)cc1)C=C1N=CN=C1C2 [Example 44]", "pIC50": 8.05}
{"compound": "N#Cc1cnc2cc3ccccc3cc2c1Nc1ccc(Oc2ccccc2)cc1 [Example 3]", "pIC50": 7.05}
{"compound": "COc1cc(Nc2c(C#N)cnc3cc4cc(OCCN5CCOCC5)c(OC)cc4cc23)c(Cl)cc1Cl [Example 129]", "pIC50": 6.52}

# COc1ccc(Cl)c(Nc2c(C#N)cnc3c2C=C2N=CN=C2C3)c1 [Example 40] with Raf-1 (c-Raf) (Homo sapiens): pIC50 is 6.15

The reported pIC50 value, Raf-1 (c-Raf) (Homo sapiens), for COc1cc2cc3c(Nc4ccc(OCc5ccccc5)c(Cl)c4)c(C#N)cnc3cc2cc1OCCN1CCOCC1 [Example 218] reads 6.18

Let me check: COc1cc2cc3ncc(C#N)c(Nc4ccc(Oc5ccccc5)c(Cl)c4)c3cc2cc1OCCN1CCOCC1 [Example 214] , system Raf-1 (c-Raf) (Homo sapiens), measured pIC50 is 6.51

Per the reported Raf-1 (c-Raf) (Homo sapiens) data, COc1cc2cc3c(Nc4ccc(Sc5nccn5C)c(Cl)c4)c(C#N)cnc3cc2cc1OCCN1CCOCC1 [Example 149] has pIC50 of 8.40

Test item COc1cc2cc3c(Nc4ccc(Sc5nccn5C)c(Cl)c4)c(C#N)cnc3cc2cc1OCCCN1CCOCC1 [Example 151] ; Raf-1 (c-Raf) (Homo sapiens); reported pIC50 was 8.15

pIC50 value, target or system Raf-1 (c-Raf) (Homo sapiens), for COc1cc(Nc2c(C#N)cnc3cc4cc(OCCN5CCOCC5)c(OC)cc4cc23)c(C)cc1Cl [Example 124] : 6.89

Bench note, Raf-1 (c-Raf) (Homo sapiens): COc1cc2cc3c(Nc4ccc(Sc5nccn5C)c(Cl)c4)c(C#N)cnc3nc2cc1OCCN1CCOCC1 [Example 176] , pIC50 reads 5.52

Raf-1 (c-Raf) (Homo sapiens) pIC50 of COc1cc(Nc2c(C#N)cnc3c2C=C2N=CN=C2C3)c(Br)cc1Cl [Example 39] is 6.05

Raf-1 (c-Raf) (Homo sapiens) data for COc1cc2cc3c(Nc4ccc(Sc5nccn5C)c(Cl)c4)c(C#N)cnc3cc2cc1OCCN1CCN(C)CC1 [Example 152] ; its pIC50: 8.10

The compound COc1cc2cc3c(Nc4ccc(Sc5nccn5C)c(Cl)c4)c(C#N)cnc3cc2cc1OCCn1ccnn1 [Example 154] on Raf-1 (c-Raf) (Homo sapiens): pIC50 was 8.10
